The measured values listed here are drawn from patent US20250340659A1.

Test system: T1, recombinant canine OX40L ECD-TNCc-HIS protein (canine)
T1 construct: also called Trimeric OX40L probe (HIS tag); trimeric canine OX40L
T1 chain: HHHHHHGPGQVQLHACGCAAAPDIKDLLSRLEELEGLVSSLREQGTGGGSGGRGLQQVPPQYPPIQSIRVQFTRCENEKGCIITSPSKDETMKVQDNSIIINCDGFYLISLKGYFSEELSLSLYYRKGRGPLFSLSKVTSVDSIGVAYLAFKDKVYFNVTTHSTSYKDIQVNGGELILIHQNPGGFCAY
Protocol text: SPR Koff (kd1)
Description: Affinity (Kd) of OX40L antibodies is measured by SPR, using a recombinant canine OX40L ECD-TNCc-HIS protein (Seq ID 811) as the capturing agent (FIG. 5B). Functional affinity is determined using a Biakore 8K (Cytiva). in brief, purified OX40L ECD-TNCc-HIS protein is covalently bound at low density to the surface of a CM5 sensor chip (Cytiva) by amine coupling, using the manufacturer's recommended protocol. […]
Each entry below carries its reported koff.
Write it as a number; the unit s⁻¹ goes unstated.

Completed entries (count: 3):
{"Binder": "PMX033 (antibody, V domains shown, also called PMX33) VH: EVQLVESGGDLVKPGGSLRLSCVASGFTFSSYHMSWVRQAPGKGLQWVAYITSGGRTTSYADAVKGRFTISRDNAKNTLYLQMKSLRAEDTAVYYCASDLVLVLGGAEYWGQGTLVTVSS VL: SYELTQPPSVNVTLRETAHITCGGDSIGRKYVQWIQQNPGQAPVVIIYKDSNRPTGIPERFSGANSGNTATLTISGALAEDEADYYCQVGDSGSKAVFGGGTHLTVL", "koff (s⁻¹)": 0.0103}
{"Binder": "PMX097 (antibody, V domains shown, also called PMX97) VH: EVQLVESGGDLVRPGGSLRLSCVASGITFSSYHMSWVRQAPGKGLQWVALINSGGSSITYADVVRGRFTISRDYAKNTLYLQMNSLRAEDTAVYYCASGSIWTHFDYWGQGTRVTVSS VL: SFVLTQLPSVSVTLRQTARITCGGDIIGSKNVYWYQQRLGQAPVLIIYRDSNRPTGIPERFSGASSGNTATLTISGALAEDEADYYCQVWDNSNKAMFGGGTHLTVL", "koff (s⁻¹)": "7.16e-05"}
{"Binder": "PMX047 (antibody, V domains shown, also called PMX47) VH: EVQLVESGGDLVKPGGSLRLSCVASGFIFSSYSMSWVRQAPEKGLQLVAGINSAGSSTYYTDAVKGRFTISRDNAKNTVYLQMNSLRAEDTAIYYCAKRWVFDFWGQGTLVTVSS VL: HIVMTQTPLSLSVSPGEPASISCKASQSLLLSYGNTYLYWFRQKPGQSPQRLIYKVSNRDPGVPDRFSGSGSGTDFTLRISRVEADDAGVYYCGQGIQDPFTFGQGTKLEIK", "koff (s⁻¹)": 0.000451}

Ask: Consider the binder shown here: PMX028 (antibody, V domains shown, also called PMX28) VH: EVQMVESGGDLVKPGGSLRLSCVASGFTFSDYHMSWVRQAPGKGLQWVAYITSGGSSTSYADAVKGRFTISRDNAKNTLYLQMNSLRAEDTAVYYCASDLVLVVGGGVYWGQGTLVTVSS VL: SYELTQPPSVNVTLRETAHITCGGDSIGSKYVQWIQQNPGQAPVVIIYKDSNRPTGIPERFSGANSGNTATLTISGALAEDEADYYCQVGDSGTKAVFGEGTQLTVL What is its recorded koff?
Reply: 0.00935

Ask: Repeat for the following binder: PMX037 (antibody, V domains shown, also called PMX37) VH: EVQLLESGGDLVKPGGSLRLSCVASGFTFSNYEMYWVRQAPGKGLEWVARFYESGSTTYSAEAVPGRFTISRDNAKNMAYLQMNSLRAEDTAVYYCASASSSSWRFDYWGQGTLVTVSS VL: SYVLTQLPSVSVTLGQTARITCGGDSIGSKNVYWFQQKLGQAPVLIIYDDRSRPSGIPERFSGANSGNTATLTISGALAEDEADYYCQVWDSSTGVFGGGTHLTVL
Reply: 0.0183

Ask: Repeat for the following binder: PMX065 (antibody, V domains shown, also called PMX65) VH: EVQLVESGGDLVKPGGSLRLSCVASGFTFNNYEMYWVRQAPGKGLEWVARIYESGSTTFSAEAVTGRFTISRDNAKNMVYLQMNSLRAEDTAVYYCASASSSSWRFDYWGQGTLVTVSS VL: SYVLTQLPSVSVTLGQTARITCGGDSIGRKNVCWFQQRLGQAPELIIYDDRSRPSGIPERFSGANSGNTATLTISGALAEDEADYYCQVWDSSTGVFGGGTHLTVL
Reply: 0.0125

Ask: Repeat for the following binder: PMX025 (antibody, V domains shown, also called PMX25) VH: EVHLVESGGDLVKPGGSLRLSCVASGFTFSSYHMSWVRQAPGKGLQWVAFINAGEISTNYADAVKGRFTISRDNAKNILYLQMNSLRAEDTAVYYCASGHIWIRPFDYWGQGTLVTVSS VL: SYVLTQLPSMSVTLRQTARITCEGDSIGRKRVNWYQQKLGQVPVLIIYDDDSRPSGIPERFSGANSGNTATLTISGALAEDEAEYYCQVWDSSNNWVFGEGTQLTVL
Reply: 0.0129

Ask: Repeat for the following binder: PMX057 (antibody, V domains shown, also called PMX57) VH: EVQLVESGGDLVKPEGSLRLSCVVSGFTFNNYGMSWVRQAPGKGLQWVAYISIDGRSTSYTDAVKGRFTISRDNAKNTLYLHINSLRTEDTAVYYCTKLGRGFTFGYWGQGTLVTVSS VL: SYVLTQLPSKNVTLKQPAHITCGGDNIGSKSVHWYQQKLGQAPALIIYYDSSRPTGIPERFSGANSGNTATLTISGALAEDEADYYCQVWDSSVSVFGGGTHLTVL
Reply: 0.00472

Ask: Repeat for the following binder: PMX154 (antibody, V domains shown) VH: EVQLVESGGDLVKPEGSLRLSCVVSGFTFSGFDMSWVRQAPGKGLQWVAYISTDGRSTGYTDAVKGRFTISRDNVKNTLYLQMNSLRTEDTAVYYCAKETRHWGFDYWGQGTLVIVSS VL: SYVLTQLSSVSVSLRQTAHITCGGDSIGRKNVYWHQQKLGRAPILIIYDDSSRPSGIPERFSGANSGNTATLTISGALAEDEAAYYCQVWDSSTSVFGGGTHLTVL
Reply: 0.00384

Ask: Repeat for the following binder: PMX051 (antibody, V domains shown, also called PMX51) VH: EVQLVESGGDLVKPGGSLRLSCVASGFSFNTYHMNWVRQAPGKGLHWVAFINSDGGGTSYADTVKGRFTISRDYAKNTLYLQMNSLRAEDTAVYYCVSGSIWTHFDYWGQGTLVTVSS VL: SYVLTQLPSVSMTLRQTAHITCGGDIIGSKSVYWYQQKLGQAPVLIIYRDTNRPTGIPERFSGASSGNTATLTISGALAEDEADYYCQVWDSSTQAVFGGGTHLTVL
Reply: 0.00119
